target: Gamma-secretase; test: Inhibition of gamma-secretase in HEK293 cells co-overexpressing APP Swedish mutant assessed as inhibition of amyloid beta 42 production by luciferase reporter gene assay; format: cell-based, Homo sapiens
For each of the compounds below, state its pIC50.
Worth noting: pIC50 values are minus log10 of concentrations stated in mol/L.

Query pIC50 on Gamma-secretase for CSc1ccc(/C=C2/C(C)=C(CC(=O)O)c3cc(F)ccc32)cc1 [SULINDAC SULFIDE]
4.08

Query pIC50 on Gamma-secretase for CC[C@H](Cc1ccc(OC)c(C(=O)NCc2ccc(C(F)(F)F)cc2)c1)C(=O)O
4.47

Query pIC50 on Gamma-secretase for CC/C(=C\c1ccc(OC)c(C(=O)NCc2ccc(C(F)(F)F)cc2)c1)C(=O)O
4.65

====

target: Gamma-secretase (Homo sapiens) (UniProt Q96BI3+Q9NZ42+Q8WW43+P49768+Q92542+P49810); experiment: Inhibition of gamma-secretase in HEK293 cells co-overexpressing APP Swedish mutant assessed as inhibition of amyloid beta 40 production at 100 uM by luciferase reporter gene assay relative to DAPT; type: cell-based; conditions: values are per cent of control
metric: residual activity (%)
Your answer should be a plain number; it is taken to be in %.

I would be grateful if you could share the reported residual activity for CCC(Cc1ccc(F)c(C(=O)NCc2ccc(Oc3ccccc3)cc2)c1)C(=O)O (stereo not drawn) .
63.2

I would be grateful if you could share the reported residual activity for CCC(Cc1ccc(OC)c(CNC(=O)c2ccc(Oc3ccccc3)cc2)c1)C(=O)O (stereo not drawn) .
119

I would be grateful if you could share the reported residual activity for CCC(Cc1ccc(OC)c(C(=O)NCc2ccc(C(F)(F)F)cc2)c1)C(=O)O (stereo not drawn) .
41

I would be grateful if you could share the reported residual activity for COc1ccc(CC(C)C(=O)O)cc1CNC(=O)c1ccc(C(F)(F)F)cc1 (stereo not drawn) .
132

I would be grateful if you could share the reported residual activity for COc1ccc(CCC(=O)O)cc1CNC(=O)c1ccc(C(F)(F)F)cc1 .
112

I would be grateful if you could share the reported residual activity for CCC(Cc1ccc(OC)c(CNC(=O)c2ccc(OCC(F)(F)F)cc2)c1)C(=O)O (stereo not drawn) .
136

I would be grateful if you could share the reported residual activity for CCC(Cc1ccc(F)c(C(=O)NCc2ccc(C(F)(F)F)cc2)c1)C(=O)O (stereo not drawn) .
13

I would be grateful if you could share the reported residual activity for CCC(Cc1ccc(F)c(C(=O)NCc2ccc(OC(F)(F)F)cc2)c1)C(=O)O (stereo not drawn) .
42.6

====

molecular target: Gamma-secretase; assay: Inhibition of gamma-secretase in HEK293 cells co-overexpressing NotchdeltaE assessed as inhibition of notch cleavage by luciferase reporter gene assay; format: cell-based, Homo sapiens
For each of the compounds below, state its pIC50.
Worth noting: pIC50 values are minus log10 of concentrations stated in mol/L.

Query pIC50 on Gamma-secretase for CSc1ccc(/C=C2/C(C)=C(CC(=O)O)c3cc(F)ccc32)cc1 [SULINDAC SULFIDE]
4.28

Query pIC50 on Gamma-secretase for CC[C@@H](Cc1ccc(OC)c(C(=O)NCc2ccc(C(F)(F)F)cc2)c1)C(=O)O
4.62

====

biological target: Gamma-secretase (Homo sapiens) (UniProt Q96BI3+Q9NZ42+Q8WW43+P49768+Q92542+P49810); assay: Inhibition of gamma-secretase in HEK293 cells co-overexpressing APP Swedish mutant assessed as inhibition of amyloid beta 42 production at 100 uM by luciferase reporter gene assay relative to DAPT; format: cell-based; conditions: values are per cent of control
For each of the compounds below, state its residual activity.
# do not omit the unit; it follows the number

I would be grateful if you could share the reported residual activity for CCC(Cc1ccc(OC)c(CNC(=O)c2ccc(Oc3ccccc3)cc2)c1)C(=O)O (stereo not drawn) .
145%

I would be grateful if you could share the reported residual activity for CCC(Cc1ccc(OC)c(CNC(=O)c2ccc(OCC(F)(F)F)cc2)c1)C(=O)O (stereo not drawn) .
133%

I would be grateful if you could share the reported residual activity for CCC(Cc1ccc(F)c(C(=O)NCc2ccc(Oc3ccccc3)cc2)c1)C(=O)O (stereo not drawn) .
106%

I would be grateful if you could share the reported residual activity for CCC(Cc1ccc(F)c(C(=O)NCc2ccc(OC(F)(F)F)cc2)c1)C(=O)O (stereo not drawn) .
55.7%

I would be grateful if you could share the reported residual activity for CCC(Cc1ccc(F)c(C(=O)NCc2ccc(C(F)(F)F)cc2)c1)C(=O)O (stereo not drawn) .
0%

I would be grateful if you could share the reported residual activity for CCC(Cc1ccc(OC)c(C(=O)NCc2ccc(C(F)(F)F)cc2)c1)C(=O)O (stereo not drawn) .
15.2%

I would be grateful if you could share the reported residual activity for COc1ccc(CCC(=O)O)cc1CNC(=O)c1ccc(C(F)(F)F)cc1 .
104%

I would be grateful if you could share the reported residual activity for COc1ccc(CC(C)C(=O)O)cc1CNC(=O)c1ccc(C(F)(F)F)cc1 (stereo not drawn) .
139%

Where do the numbers come from? From ChEMBL document CHEMBL1221235.
